ASSAY SUMMARY: proteolytic resistance in pig kidney homogenate
Type: in vitro ADME
CONDITION SUMMARY: pig, tissue homogenate, pH 5.0, 37° C., cell printed in hours
MEASUREMENT TYPE: half-life

Query CC[C@H](C)[C@@H]1NC(=O)[C@H](NC(=O)[C@@H](NC(=O)[C@H](CCCNC(=N)N)NC(=O)[C@@H](N)CC(=O)O)C(C)C)CSC[C@@H](C(=O)O)NC(=O)[C@H](Cc2c[nH]cn2)NC1=O [[Cyc^4-7]Ang(1-7), Asp-Arg-Val-Ala-Ile-His-Ala] yields half-life of > 24 h

---

ASSAY SUMMARY: proteolytic resistance in pig pancreas homogenate
Assay type: in vitro ADME
CONDITION SUMMARY: pig, tissue homogenate, pH 7.4, 37° C., cell printed in hours
Experimental: Angiotensin (wildtype or cyclised analogs, chemically produced [Cyc 4-7] Ang(1-7) or biologically produced [Cyc 4-7] Ang(1-8)) was added to homogenates of pig liver (0.2 μmol angiotensin/mg liver homogenate), pig kidney (0.2 μmol angiotensin/mg kidney homogenate), pig pancreas (0.8 μmol angiotensin/mg pancreas homogenate) or plasma (1 μmol angiotensin/ml) and incubated at 37° C., pH 7.4 or pH 5, for different time periods up to 30 hours. The enzymatic reaction was stopped by 100° C. for 5 min. […]
MEASUREMENT TYPE: half-life

The compound identified as CC[C@H](C)[C@@H]1NC(=O)[C@H](NC(=O)[C@@H](NC(=O)[C@H](CCCNC(=N)N)NC(=O)[C@@H](N)CC(=O)O)C(C)C)CSC[C@@H](C(=O)O)NC(=O)[C@H](Cc2c[nH]cn2)NC1=O [[Cyc^4-7]Ang(1-7), Asp-Arg-Val-Ala-Ile-His-Ala] registered its half-life at > 24 h

---

Entries and their metabolised at 3 h, 0.2 μmol angiotensin/mg liver homogenate values follow.
ASSAY SUMMARY: proteolytic resistance in pig liver homogenate
Type: in vitro ADME
CONDITION SUMMARY: pig, pig liver homogenate, pH 7.4, 37° C., read-out: Degradation after 3 h (%)
Experimental: Angiotensin (wildtype or cyclised analogs, chemically produced [Cyc 4-7] Ang(1-7) or biologically produced [Cyc 4-7] Ang(1-8)) was added to homogenates of pig liver (0.2 μmol angiotensin/mg liver homogenate), pig kidney (0.2 μmol angiotensin/mg kidney homogenate), pig pancreas (0.8 μmol angiotensin/mg pancreas homogenate) or plasma (1 μmol angiotensin/ml) and incubated at 37° C., pH 7.4 or pH 5, for different time periods up to 30 hours. The enzymatic reaction was stopped by 100° C. for 5 min. […]
Answer format: numeric, % implied, no suffix.

[
  {
    "MOLECULE": "CC[C@H](C)[C@H](NC(=O)[C@H](Cc1ccc(O)cc1)NC(=O)[C@@H](NC(=O)[C@H](CCCNC(=N)N)NC(=O)[C@@H](N)CC(=O)O)C(C)C)C(=O)N[C@@H](Cc1c[nH]cn1)C(=O)N1CCC[C@H]1C(=O)O [Ang(1-7), DRVYIHP, reference compound]",
    "EXPERIMENTAL VALUE": 100
  },
  {
    "MOLECULE": "CC[C@H](C)[C@H](NC(=O)[C@H](Cc1ccc(O)cc1)NC(=O)[C@@H](NC(=O)[C@H](CCCNC(=N)N)NC(=O)[C@@H](N)CC(=O)O)C(C)C)C(=O)N[C@@H](Cc1cnc[nH]1)C(=O)N1CCC[C@H]1C(=O)N[C@@H](Cc1ccccc1)C(=O)O [Ang(1-8), Asp-Arg-Val-Tyr-Ile-His-Pro-Phe, reference compound]",
    "EXPERIMENTAL VALUE": 98
  },
  {
    "MOLECULE": "CC[C@H](C)[C@@H]1NC(=O)C(NC(=O)[C@@H](NC(=O)[C@H](CCCNC(=N)N)NC(=O)[C@@H](N)CC(=O)O)C(C)C)C(C)SC[C@@H](C(=O)N[C@@H](Cc2ccccc2)C(=O)O)NC(=O)[C@H](Cc2c[nH]cn2)NC1=O (stereo partly drawn) [[Cyc^4-7]Ang(1-8), Asp-Arg-Val-Abu-Ile-His-Ala-Phe]",
    "EXPERIMENTAL VALUE": 100
  }
]

Next item in the queue.
Sample CC[C@H](C)[C@@H]1NC(=O)[C@H](NC(=O)[C@@H](NC(=O)[C@H](CCCNC(=N)N)NC(=O)[C@@H](N)CC(=O)O)C(C)C)CSC[C@@H](C(=O)O)NC(=O)[C@H](Cc2c[nH]cn2)NC1=O [[Cyc^4-7]Ang(1-7), Asp-Arg-Val-Ala-Ile-His-Ala] ; metabolised at 3 h, 0.2 μmol angiotensin/mg liver homogenate observed: 82
